# assay-method-text: soluble on expression in E. coli; label from the status in PepcDB or PDB records
assay-readout: soluble on expression in E. coli

MSLRYKVGEVAARLGLTLRTLKYYEELGLVTPERTDSRYRMYSEADVQRLERIRRMRALGLSLGTIQAISTHPQESDPDGRQVLTQEALHTLESDLSSQLTVLSTRITAAEKELKDARALRRDVQRDLDYVQRRLAGAQVGELLREKDPAEGHHHHHH not soluble
MIIPMNNKHPLPTPLVSIIIPVYNVEKYLYRCVKSILSQDYYDYEIILVDDGSTDGSGMICDELTEQHGHISVIHKPNGGQGSARNAGLNHAKGKYIWFIDSDDYISPHSLSVIMSQITQGDFDALFFPYIKSNGNILIGEAVGKYHAGVYRGQQLLLEGLVNMSMCTIVSLRSRWIDNRIFFREDIHFEDFEINPRVLKFLERAIFLDSNIIPYIYYTRLGSTMNQLDPQKRMRQTEDFLRIEKSWKEWFNLDSPEPNSYDMLMLRTGTNMLHRNLLNFVRNSNFSISTKLKLYAQYRKKGVFSWFYNGYRRDPYVGCTSVRVFWNTIGRSYILFSLFSIVEEIWKKIRK not soluble
GQDRSEATLIKRFKGEGVRYKAKLIGIDEVSAARGDKLCQDSMMKLKGVVAGARSKGEHKQKIFLTISFGGIKIFDEKTGALQHHHAVHEISYIAKDITDHRAFGYVCGKEGNHRFVAIKTAQAAEPVILDLRDLFQLIYELKQREELEKKA soluble
MGFEDLVEVTTMIADLTTDQREALLLTQLLGLSYADAAAVCGCPVGTIRSRVARARDALLADAEPDDLTG soluble
